Reported Ki values for the following binders.
target_or_system: matriptase (MT-SP1), human protease domain (human, UniProt Q9Y5Y6)
Sequence (Q9Y5Y6 615-855): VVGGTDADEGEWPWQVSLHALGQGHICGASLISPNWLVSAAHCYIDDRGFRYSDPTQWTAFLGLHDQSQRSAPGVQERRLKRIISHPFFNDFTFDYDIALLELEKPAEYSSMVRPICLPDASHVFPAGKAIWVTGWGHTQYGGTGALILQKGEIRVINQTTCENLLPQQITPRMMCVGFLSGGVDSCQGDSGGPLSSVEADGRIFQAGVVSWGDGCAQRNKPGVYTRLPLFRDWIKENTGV
assay_protocol: steady-state enzyme inhibition kinetics
Unit nM implied. Number only.

| binder | assay_readout | unit_spec | measured_number |
| --- | --- | --- | --- |
| Fab A11 H R100bK (Fab, V domains shown) VH: EVQLVQSGGGLVKPGGSLRLSCAASGFTFSSYAMSWVRQAPGKGLEWVSAISGSGGSTYYADSVKGRFTISRDNSKNTLYLQMSSLRAEDTAVYYCVKDLGIAARKFVSGAFDIWGQGTMVTVSS VL: EIVLTQSPGTLSLSPGERATLSCRASQSVSSSYLAWYQQKPGQAPRLLIYGASTRATGIPARFSGSGSGTDFTLTINSLEPEDFAVYYCQQRSNWPPGYTFGQGTKVEIT | Ki | nM | 180 |
| Fab A11 H R100aA (Fab, V domains shown) VH: EVQLVQSGGGLVKPGGSLRLSCAASGFTFSSYAMSWVRQAPGKGLEWVSAISGSGGSTYYADSVKGRFTISRDNSKNTLYLQMSSLRAEDTAVYYCVKDLGIAAARFVSGAFDIWGQGTMVTVSS VL: EIVLTQSPGTLSLSPGERATLSCRASQSVSSSYLAWYQQKPGQAPRLLIYGASTRATGIPARFSGSGSGTDFTLTINSLEPEDFAVYYCQQRSNWPPGYTFGQGTKVEIT | Ki | nM | 1.5 |

Now turn to the next binder.
Any idea what its Ki is? The binder is Fab S4 H R100bK (Fab, V domains shown) VH: EVQLVQSGAEVKKPGSSVKVSCKASGGTFSSYAISWVRQAGQGLEWMGGIIPIFGTANYAQKFQGRVTITADESTSTAYMELSSLRSEDTAVYYCARTFHIRRYKSGYYDKMDHWGQGTLVTVSS VL: VLTQPPSVSGAPGQRVTISCSGSSSNIGSNYVSWYQQKPGTAPKLLIYDNNQRPSGVPDRFSGSKSGTSAVLAITGLQSEDEADYYCQSRDISQYVFGGGTKLTVL
110
